Assignment: determine reported normalized RNA/DNA level without ligand (log10) for the given variants.
B1: library; a variant is named by its letters at N, in order (parent)
chain: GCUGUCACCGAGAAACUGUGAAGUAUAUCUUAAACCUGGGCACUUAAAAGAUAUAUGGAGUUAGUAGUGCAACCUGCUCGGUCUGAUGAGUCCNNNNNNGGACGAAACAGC

# Variants of: B1
# test-method-notes: normalized RNA/DNA level without ligand (relative to sTRSVctl = 100) (log10 (% of sTRSVctl)); HEK293T; ligand: cyclic di-GMP (c-di-GMP-II aptamer); higher = less ribozyme self-cleavage, higher mRNA level
# applied-conditions: reporter: mCherry (pCS4076), ligand present: no

Tell me its normalized RNA/DNA level without ligand (log10) given UCUGCA as the entry.
1.75

Please report normalized RNA/DNA level without ligand (log10) for the following variant: CAGUAU
1.4

Entry UCAAGC needs its normalized RNA/DNA level without ligand (log10) filled in; supply it.
1.63

Input UAUAAG , output reported normalized RNA/DNA level without ligand (log10).
1.66

Identify normalized RNA/DNA level without ligand (log10) associated with the variant UUUACG
1.83

Give the reported value of normalized RNA/DNA level without ligand (log10) for this record: UGCCUU
1.72

Output normalized RNA/DNA level without ligand (log10) of AGCGGA
1.52

Give me measured normalized RNA/DNA level without ligand (log10), please, for this variant: AAUAGU
1.6

Please supply the value of reported normalized RNA/DNA level without ligand (log10) for the item CGCCGU
1.77

Indicate the recorded normalized RNA/DNA level without ligand (log10) value for this variant: GUACAA
1.5

Hello, please tell me recorded normalized RNA/DNA level without ligand (log10) for this one: AGAGGC
1.66

Supply recorded normalized RNA/DNA level without ligand (log10) for GAUAGU here.
1.62

Report measured normalized RNA/DNA level without ligand (log10); entry is CUUAAC
1.68

Read the entry UCCAGU and write its reported normalized RNA/DNA level without ligand (log10).
1.63

Tell me normalized RNA/DNA level without ligand (log10) reported for CCUCGG
1.84

Query normalized RNA/DNA level without ligand (log10) for GUAGCA
1.83

Return value of normalized RNA/DNA level without ligand (log10) for input GUUAUA , no commentary.
1.59

Supply measured normalized RNA/DNA level without ligand (log10) of CGUUAC in your reply.
1.57

Could you please provide reported normalized RNA/DNA level without ligand (log10) for UUGUAG ? Thanks!
1.67

Determine its reported normalized RNA/DNA level without ligand (log10): UUGUGC
1.75

Indicate the recorded normalized RNA/DNA level without ligand (log10) value for this variant: GAAGGA
1.44

Query normalized RNA/DNA level without ligand (log10) for GUUCAC
1.74
